Provide the recorded MIC for the entries that follow.
tested on: Bacillus subtilis; assay: Antibacterial activity against penicillin-susceptible Bacillus subtilis ATCC9372 assessed as bacterial growth inhibition incubated for 20 hrs by CLSI based broth microdilution method; format: functional
Give bare numbers, in µg/mL.

The following compounds have reported results that may help.
1) C[n+]1cc(-c2ccccc2)c(/C=C/c2ccc(C(C)(C)C)cc2)cc1-c1ccccc1.[I-] 0.5
2) CN(C)c1ccc(/C=C/c2cc(-c3ccccc3)[n+](C)cc2-c2ccccc2)cc1.[I-] 1
3) Cc1ccc(/C=C/c2cc(-c3ccc(C(C)(C)C)cc3)[n+](C)cc2-c2ccccc2C)cc1.[I-] 0.5
4) C=CC1=C(C(=O)O)N2C(=O)[C@@H](NC(=O)/C(=N\OCC(=O)O)c3csc(N)n3)[C@H]2SC1 2
5) C[n+]1cc(-c2ccccc2)c(/C=C/c2ccc(N3CCCC3)cc2)cc1-c1ccc(C(C)(C)C)cc1.[I-] 0.5
6) Cc1ccccc1-c1c[n+](C)c(-c2ccc(C(C)(C)C)cc2)cc1/C=C/c1ccc(C(C)(C)C)cc1.[I-] 0.125
7) CC(=O)Nc1ccc(/C=C/c2cc(-c3ccc4ccccc4c3)[n+](C)cc2-c2ccccc2)cc1.[I-] 1
8) C[n+]1cc(-c2ccccc2)c(/C=C/c2ccc(N)cc2)cc1-c1ccc(C(C)(C)C)cc1.[I-] 0.5

Below: the item to evaluate.
Exam item: Using the record for C[n+]1cc(-c2ccccc2)cc(/C=C/c2ccc(F)cc2)c1-c1ccccc1.[I-] , report its MIC.
Marked response: 8
